Source of measurements: the COVID Moonshot data (paper PMC7615835)

# Assay context: mouse; plasma
Measure name: fraction unbound
// return a plain number; no unit text

Compound	Recorded value
O=C(Nc1cncc2ccncc12)[C@H]1CCOc2ccc(Cl)cc21 (stereo in doubt)	0.219

We now examine a further compound.
Reported fraction unbound, compound O=C(Nc1cncc2ccccc12)[C@@H]1CCNc2cc(Cl)c(Cl)cc21 (stereo in doubt) : ____ 0.039

---

# Target or system: SARS-CoV-2 Main Protease (SARS-CoV-2) (UniProt P0DTD1)
# maps each entry to its IC50
A number alone suffices; assume µM.

Use the examples below as a reference point.
Compound	IC50 (µM)
CNC(=O)CN1CC(C(=O)Nc2cncc3ccc(C(C)(C)O)cc23)c2cc(Cl)ccc2C1=O (centres undefined)	0.384
CSc1ccc(CN(C(=O)c2ccco2)C(C(=O)NCCc2cccc(F)c2)c2cccnc2)cc1C#N (centres undefined)	54.9
COc1cc(Nc2cc(Cl)cc(CC(=O)Nc3cncc4ccccc34)c2)cc(OC)c1	1.96
CNC(=O)CN1C[C@H](C(=O)Nc2cncc3cccc(Cl)c23)c2cc(Cl)ccc2C1=O (stereo in doubt)	0.0964

# evaluate next
Return reported IC50; argument: CNC(=O)CN1Cc2ccc(Cl)cc2C(C(=O)Nc2cncc3cc(COC)ccc23)C1 (centres undefined) 0.119

---

Dear all, this message contains pIC50 results, target or system UniProtKB P0DTD1.
By convention, pIC50 is the negative base-10 log of a molar concentration.

Molecule	pIC50
CN(C)C(=O)CN1CCN(c2cc(Cl)cc(CC(=O)Nc3cncc4ccccc34)c2)CC1	5.55
CN(C)C(=O)COCC(=O)NC(C(=O)Nc1cncc2ccccc12)c1cccc(Cl)c1 (stereo not given)	5.27
O=C(Cc1cc(Cl)cc(Cl)c1)Nc1cncc2ccccc12	5.86

// fetch UniProtKB P0DTD1 pIC50 for N#Cc1cnn(-c2ccccn2)c1Nc1cc(Cl)cc(CC(=O)Nc2cncc3ccccc23)c1 5.76

What value of pIC50 on UniProtKB P0DTD1 does CNc1ccc(N(C(=O)Cn2nnc3ccccc32)c2cccc(Cl)c2)cc1 have? 5.27

Hi! What's the reported pIC50 for COc1ccc2nnn(CC(=O)N(Cc3ccccn3)c3ccc(C4CCNCC4)cc3)c2c1 on UniProtKB P0DTD1? 4.41

Recorded pIC50 for COc1ccc(Cl)cc1OCCNC(=O)c1cc(=O)[nH]c2cccc(OC)c12 with UniProtKB P0DTD1, please? 6.06

Return pIC50 measured with UniProtKB P0DTD1 given this molecule: CC1CN(C(=O)c2cc(=O)[nH]c3ccccc23)CCN1c1cccc(Cl)c1 (stereo not given) 4.83

---

Each entry below carries its measured pIC50, system: UniProt P0DTD1.
FYI, pIC50 means -log10 of a concentration in mol per litre.

The examples below pair each entry with its known result.
Compound	Recorded value
O=C(Cc1cc(Cl)cc(OC2CC(=O)N2)c1)Nc1cc(=O)[nH]c2ccccc12 (stereo unspecified)	4.08
O=C(CCl)N1CCCN(S(=O)(=O)c2cccs2)CC1	5.14

Moving on to the next compound.
Recorded pIC50 for CC(C)(C)c1cnc(N(C(=O)c2cocn2)C(C(=O)NCCc2cccc(F)c2)c2cccnc2)o1 (stereo unspecified) with UniProt P0DTD1, please? 4.49

---

# Assay context: human; plasma
Measure name: recovery
Remember to put the unit after the number in your answer.

Molecule	Recorded value
O=C(Nc1cncc2ccccc12)C1CCS(=O)(=O)c2ccc(Cl)cc21 (configuration not stated)	96.9%

Name the recorded recovery for O=C(Nc1cncc2ccccc12)[C@@H]1CCNc2cc(Cl)c(Cl)cc21 (stereo in doubt) . 105%
